Provenance of the data: PubChem BioAssay AID743417

- Test system: Clone20 osteoblast Shn3 3'UTR firefly luciferase, 24 h
- Assay Text: Shn3 3'UTR reporter inhibitors, dose response, cell-based, Clone20 osteoblasts, luminescence, dry powder, set 2 (AID 743417)
Records with an inconclusive call do not appear. Activity calls are given as the source filed them.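 The calls were made as follows: active = compounds lowering the luciferase signal with a fitted half-maximal dose at most twice their top valid dose (cut at about 30 µM in these data); inconclusive = flat fits with moderate signal loss, or poor fits; inactive = the rest.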
Pick one and only one: active, inactive

Input: Query: recorded result category for NC(=O)CC(NC(=O)c1ccc(Br)cc1)c1ccc(N2CCCCCC2)c([N+](=O)[O-])c1 (centres undefined) in this test
Output: active

Input: Follow-up item: O=C(Cc1ccc(Cl)cc1)Nc1ccc(N2CCN(C(=O)c3ccco3)CC2)cc1
Output: inactive

Input: Proceed to CN(Cc1ccc(OC(F)F)cc1)C(=O)c1cccc(S(=O)(=O)N2CCN(c3ccccc3)CC2)c1
Output: active

Input: How about this molecule: COCC1CCN(C(=O)c2cc(COc3ccc4ncccc4c3)on2)CC1
Output: active

Input: Now give it for CC(C)N=C(N)N=C(N)Nc1ccc(Cl)cc1 too.
Output: active

Input: Follow-up item: Cn1c(=O)[nH]c(=O)c2c1nc([N+](=O)[O-])n2Cc1ccccc1
Output: active

Input: Subsequent entry: COc1cc(NC(=O)COc2cccc3c2OC(C)(C)C3)cc(OC)c1OC
Output: active

Input: CCN(CC)S(=O)(=O)c1cc(NC(=O)CNc2cccc(S(=O)(=O)N3CCOCC3)c2)ccc1C ?
Output: active

Input: // next record CCS(=O)(=O)c1ncc(Cl)c(C(=O)Nc2ccccc2OC)n1
Output: active

Input: Also check Cc1ccc(NC(=O)c2nc(S(=O)(=O)Cc3ccccc3C)ncc2Cl)cc1C
Output: active

Input: Next molecule: COc1ccc(CNC(=O)c2cc3c(C)nc4ccccc4c3o2)c(OC)c1
Output: active

Input: CC(=O)Nc1ccc(NC(=O)c2nc(S(=O)(=O)Cc3ccccc3)ncc2Cl)cc1 ?
Output: active

Input: Another molecule to look at: Cc1c(C(C)C)c(=O)n(-c2ccc(S(=O)(=O)NCc3ccccc3)cc2)n1C
Output: active

Input: Subsequent entry: COc1ccc(OCC(=O)NNC(=S)NC(=O)c2ccc(Br)o2)cc1
Output: active

Input: Check CS(=O)(=O)c1ccc(C(=O)OCC(=O)N2CCOCC2)cc1[N+](=O)[O-] too.
Output: active

Input: Moving on to O=C(C(=Cc1ccccc1)CN1CCCCC1)c1ccccc1
Output: active

Input: Could you do the same for COC(=O)C12OCC34C(CC5C(C)=C(O)C(=O)CC5(C)C3C(O)C1O)OC(=O)C(OC(=O)/C=C(\C)C(C)C)C24 (centres undefined) , please?
Output: active

Input: Okay, and CC(C)=CCC/C(C)=C/CNC(=O)C[C@H]1C[C@H](C(=O)N(C(C)C)C(C)C)[C@@]2(C)c3[nH]c4cc(CCC(=O)N(C)C)ccc4c3CCN2C1=O ?
Output: active

Input: What about NC(=O)CC(NC(=O)c1ccccc1)c1ccc(N2CCC(Cc3ccccc3)CC2)c([N+](=O)[O-])c1 (centres undefined) ?
Output: active

Input: Same again, this time with COc1ccc(C(=O)Cn2c(C(=O)/C=C/c3ccccc3)nc3ccccc32)cc1
Output: active

Input: Consider next the molecule CN(C)CCCNc1c2ccccc2nc2ccccc12 in the same way.
Output: active

Input: Input COC(=O)[C@@]12CCCCN1[C@H](c1ccc(SC3CCCCC3)c(OC)c1)[C@@H]1C(=O)N(C)C(=O)[C@@H]12
Output: active

Input: Another molecule to look at: Cc1ccc(S(=O)(=O)N2[C@H](c3cccc(Cl)c3)CC(=O)[C@@H]3CN(S(=O)(=O)c4ccccc4C)[C@H](c4ccc(Cl)cc4)C[C@@H]32)cc1
Output: active

Input: Moving on to the next molecule: COC1CC2C=C(C)C=CC=CC(=O)NC(c3ccccc3)CC=CCCC(O)CC(=O)C2=C1O (centres undefined)
Output: active

Input: Cool, now CC1Sc2ccc(S(=O)(=O)N3CCC(C(=O)Nc4cccc(Cl)c4)CC3)cc2NC1=O (centres undefined)
Output: active

Input: Field entry: CCn1cc(C(=O)NCc2ccco2)c(=O)c2cc(S(=O)(=O)N3CC(C)CC(C)C3)ccc21 (centres undefined)
Output: active

Input: Next molecule up: CCCC(=O)N1CCN(c2ccc(NC(=O)c3ccc([N+](=O)[O-])o3)cc2Cl)CC1
Output: active

Input: Another molecule: Cc1cc2c(cc(C(=O)OC(C(=O)NC3CCCCC3)C(C)C)n2C)o1 (centres undefined)
Output: active

Input: Next up: CCC12CN(S(=O)(=O)c3ccc(C)cc3)CC(CC)(CN(S(=O)(=O)c3ccc(C)cc3)C1)C2=O
Output: active

Input: And the next one, CC(C)(C)c1cc(C(=O)N/N=C/c2ccccc2O)n(-c2ccccc2)n1 ?
Output: active

Input: Param item: CCOC(=O)c1cnc(-n2nc(C)cc2C)nc1NC1CCCC1
Output: active

Input: Now try O=S(=O)(Nc1cccc2ncccc12)c1cccs1 .
Output: active

Input: Follow-up entry: O=[N+]([O-])c1cccc(S(=O)(=O)NCc2ccncc2)c1
Output: active

Input: Entry to check: O=c1[nH]c(Nc2nc3ccccc3o2)nc2c1CCCC2
Output: active
